target: T1, recombinant human IGF-1R (rhIGF-1R) (human, UniProt P08069 31-935); experiment: heterogeneous TRF (DELFIA) competition with b-rhIGF-1 for plate-coated rhIGF-1R
T1 construct: extracellular domain; Coated on plates in the TRF assay and europium-labelled (LANCE) in the TR-FRET assays; also called rhIGE-1R; Eu3+-rhIGF-1R
Recorded pIC50, one value per entry.
pIC50 here is simply -log10 of the concentration when that concentration is written in mol/L.

stdin: Which value of pIC50 has been reported for GSLDESFYDWFERQLG (also called RP9 minus terminal lysines) [RP9] in the records?
stdout: 6.38

stdin: Which value of pIC50 has been reported for WLDQERAWLWCEISGRGCLSGGSGGSGSLDESFYDWFERQLGKK (Site 2-Site 1 dimer peptide, recombinant; also called D815-RP9 (6 aa linker); D815-6-RP9) [D815-6aa-RP9] in the records?
stdout: 7.45

Further cases:
stdin: Which value of pIC50 has been reported for D815-6aa-G33 (Site 2-Site 1 dimer peptide, recombinant; also called D815-G33 (6 aa linker); D815-6-G33) peptide: WLDQERAWLWCEISGRGCLSGGSGGSGIISQSCPESFYDWFAGQVSDPWWCW in the records?
stdout: 6.20
